Assign TGI to each entry below.
- Tested on: A549 NSCLC
- assay.notes: NCI tumour cell line growth inhibition, 48 h

Record excerpt, results attached:
C/C(=N\Nc1ncnc2ccccc12)c1ccccn1
32.6 µM
CCCCCCCCCCOC1C(C(C)OCCCN(C)C)OC2OC3(CCCCC3)OC21 (stereo unspecified)
30.8 µM
CC1=NN(C(=O)c2ccccc2)C(=O)C1N=Nc1ccccc1C(=O)O (stereo unspecified)
> 100 µM
CC(C)(C)[Si](Nc1ccccc1)(c1ccccc1)c1ccccc1
28.2 µM
Cc1cc(Cl)ccc1Nc1nc(C(F)(F)F)ccc1C(=O)N/N=C/c1ccc(N(C)C)cc1
> 100 µM
CCOC(=O)C1CCn2c(nc3c(=O)n(C)c(=O)n(C)c32)S1 (stereo unspecified)
> 100 µM
O=C(O)C1=C(Cl)c2ccccc2S1(=O)=O
> 100 µM
c1ccc([P+](CCC[P+](c2ccccc2)(c2ccccc2)c2ccccc2)(c2ccccc2)c2ccccc2)cc1
> 100 µM

Give one value of TGI per listed molecule.
1. N#CNc1nc(C(=O)Nc2ccc(Cl)cc2)cc(-c2ccccc2)n1
2. CCOC(=O)CC(=Nc1cc(C)on1)N(CC)CC
3. COc1cc(C(c2cc(OC)c(OC)c(OC)c2)N2C(=O)CCC2C(=O)O)cc(OC)c1OC (stereo unspecified)
4. CN(/C(=N\O)c1ccccc1)c1ccccc1
5. COc1ccc(-c2cc(-c3ccc(Nc4ccnc5cc(C(F)(F)F)ccc45)cc3)[nH]c(=O)c2C#N)cc1
6. Nc1n[n+]([O-])c2cnccc2[n+]1[O-]
7. Cn1nc2ccc3nccc(NCCNCCCl)c3c2n1
8. Cc1cccc2cc3ccc4ccccc4c3cc12

Response line:
> 100 µM
> 100 µM
> 100 µM
> 100 µM
> 100 µM
> 100 µM
> 100 µM
> 100 µM

###

- System: NCI/ADR-RES ovarian
- assay.notes: NCI tumour cell line growth inhibition, 48 h
metric: GI50

Record excerpt, results attached:
CSc1ccc(C(=O)/C=C/c2ccc(F)cc2)cc1
> 100000 nM
COc1ccc(Cn2c3c(c4c(O)cccc42)C(=O)c2ccccc2-3)cc1
2510 nM

--- query ---
Prompt line: Which GI50 reading was recorded for the molecule CO[C@H]1/C=C/C[C@H](C)[C@@H](C)S(=O)(=O)NC(=O)c2ccc3c(c2)N(C[C@@H]2CC[C@H]21)C[C@@]1(CCCc2cc(Cl)ccc21)CO3 ?
Response line: 2230 nM

###

- Test system: UO-31 renal
- assay.notes: NCI tumour cell line growth inhibition, 48 h
Assign TGI to each entry below.
Give bare numbers, in µM.

Record excerpt, results attached:
CC(C(O)c1ccccc1)[N+](=O)[O-] (configuration not stated)
20.6
C[C@@]1(CBr)C[C@@](C)(/C=C/Cl)[C@@H](Cl)C[C@H]1Cl
29.1
Cc1ccc2oc(=O)cc(C3c4ccc([nH]4)C(c4cc(=O)oc5ccc(C)cc45)c4ccc([nH]4)C(c4cc(=O)oc5ccc(C)cc45)c4ccc([nH]4)C(c4cc(=O)oc5ccc(C)cc45)c4ccc3[nH]4)c2c1 (configuration not stated)
1.19
CCN(CC)CCNc1ccc2nnn3c4ccc(OC(C)=O)cc4c(=O)c1c23
12.3
CCNC(=O)CCCCC(=O)c1c(C)[nH]c(/C=C2\N=C(c3ccc[nH]3)C=C2OC)c1C
4.51

Give one value of TGI per listed compound.
1. COc1cccc2cc(N(C)c3nc(C)nc4ccsc34)ccc12
2. C#CCOc1cccc(Nc2ncnc3c2ncn3C2CCN(C(=O)CCl)C2)c1 (configuration not stated)
3. COc1ccc(-c2cc3nccn3c(Nc3ncccc3C(N)=O)n2)cc1OC
4. Cc1[nH]ccc2cc3nc4ccccc4c3cc12
5. CC(=O)[CH-]C(=O)c1ccccc1.CC(=O)[CH-]C(=O)c1ccccc1.CC12CC3(C)CC(C)(C1)CC([O-])(C2)C3.CC[O-].[Ti+4]

Response line:
12.5
29.6
42.1
8.47
57.5

Give one value of TGI per listed compound.
1. CCCCCCCCCCOC1C(C(C)OCCCN(C)C)OC2OC3(CCCCC3)OC21 (configuration not stated)
2. C=C(CN(CCN1CCOCC1)CC(=C)c1ccc(C(=O)Nc2ccccc2N)cc1)c1ccc(C(=O)Nc2ccccc2N)cc1
3. CC(C)(C)[Si](Nc1ccccc1)(c1ccccc1)c1ccccc1

Response line:
1. 31.7
2. 11.4
3. 18.5

###

- System: COLO 205 colon
- assay.notes: NCI tumour cell line growth inhibition, 48 h
metric: TGI (µM)
Numbers only, in µM.

OCCCCC#Cc1ccccc1C#Cc1cccs1
31.5
C=C(CN(CCN1CCOCC1)CC(=C)c1ccc(C(=O)Nc2ccccc2N)cc1)c1ccc(C(=O)Nc2ccccc2N)cc1
20.2
CC(C(O)c1ccccc1)[N+](=O)[O-] (stereo not given)
80
Cc1ccc(C(=O)/C=C/N2CCN(c3cccc(C(F)(F)F)c3)CC2)cc1
72
O/N=C1/C(=C/c2ccc(Cl)cc2)CCCC1C(NO)c1ccc(Cl)cc1 (stereo not given)
42.3
CO[C@H]1/C=C/C[C@H](C)[C@@H](C)S(=O)(=O)NC(=O)c2ccc3c(c2)N(C[C@@H]2CC[C@H]21)C[C@@]1(CCCc2cc(Cl)ccc21)CO3
6.6

Give one value of TGI per listed molecule.
1. CCC[CH2][Sn]1([CH2]CCC)[O]CC([CH2][Sn]([c]2ccccc2)([c]2ccccc2)[c]2ccccc2)[O]1 (stereo not given)
2. CCOC(=O)c1cn2ncnc(Oc3ccc(NC(=O)NCCN(CC)CC)c(Cl)c3)c2c1C
3. NC(N)=N/N=C(/c1ccccc1)c1ccc(O)cc1O
4. CN1CCN(c2ccc3nc(-c4ccc5nc(-c6ccc(N(C)CCCl)cc6)[nH]c5c4)[nH]c3c2)CC1

Response line:
23
3.78
33.2
0.341

###

- Test system: TK-10 renal
- assay.notes: NCI tumour cell line growth inhibition, 48 h
metric: log10 TGI (log10 of the value in µM)
Recorded TGI (log10, µM)

Record excerpt, results attached:
O=C1O[C@H](COC(=O)c2ccccc2)[C@@H](OC(=O)c2ccccc2)C=C1OC(=O)c1ccccc1
1.88
Cc1cc(S(=O)(=O)Nc2nc3ccsc3c(=O)n2Cc2ccccc2)c(S)cc1Cl
1.96
Cc1ccc(-c2nc3n(c2/C=N\N=C(N)N)CCS3)cc1
1.52
O=C1C(Nc2cccc(O)c2)=C(Sc2ccc(Cl)cc2)C(=O)N1Cc1ccccc1
1.50
C#CCOc1cccc(Nc2ncnc3c2ncn3C2CCN(C(=O)CCl)C2)c1 (centres undefined)
1.50

Give one value of log10 TGI per listed molecule.
1. OCCCCC#Cc1ccccc1C#Cc1cccs1
2. COc1ccc(NCc2c(O)ccc3ccccc23)cc1
3. CCCCCC/C=C\CCCCCCCCCc1c(O)c(OC)cc(O)c1CN(C)C

Response line:
1. 1.72
2. 1.59
3. 1.46

###

- Tested on: SN12C renal
- assay.notes: NCI tumour cell line growth inhibition, 48 h
metric: TGI (µM)
Numbers only, in µM.

Record excerpt, results attached:
O=C(Nn1c2c(sc1=NC1CC1)C(=O)c1ccccc1C2=O)c1cc2ccc1CCc1ccc(cc1)CC2
2.61
CCCCCCCCCCCCCCCCCCOCC1(COP(=O)([O-])OCC[N+](C)(C)C)CCCO1 (configuration not stated)
5.81
COc1ccc(C2c3c(-c4ccccc4)nn(-c4ccccc4)c3Oc3ncn(N)c(=N)c32)cc1OC (configuration not stated)
8.45
O=C1O[C@H](COC(=O)c2ccccc2)[C@@H](OC(=O)c2ccccc2)C=C1OC(=O)c1ccccc1
36.9
CCCCCCCCCCCCOC(=S)NC
31.7
CCOc1ccc(-n2c(=O)n3c(Nc4ccc(Cl)cc4)nc4c(c(=O)n(C)c(=O)n4C)n3c2=O)cc1
74.6
N/C(=N\N=C/c1cc(Cl)cc(Cl)c1O)NO
33.4
Clc1ccc2c(NCCN3CCN(c4ccnc(N5CCCC5)n4)CC3)ccnc2c1
19.1

--- query ---
Prompt line: Find TGI (SN12C renal) for the entry COc1ccc2nc(C3=CN(C4OC(CO)C(O)C(O)C4O)C4C=CC=CC34)sc2c1 (configuration not stated)
Response line: 94.1

###

- Test system: SF-539 CNS
- assay.notes: NCI tumour cell line growth inhibition, 48 h
Assign TGI to each entry below.
Answers are plain numbers, in µM.

Record excerpt, results attached:
CC(=O)[CH-]C(=O)c1ccccc1.CC(=O)[CH-]C(=O)c1ccccc1.CC12CC3(C)CC(C)(C1)CC([O-])(C2)C3.CC[O-].[Ti+4]
38.5
COc1cc(C2c3cc4c(cc3OC(N3CCOCC3)C2C)OCO4)cc(OC)c1OC (stereo unspecified)
1.69
CC1(C)CC(O)CCCCCCOc2c(CN)cccc2NC(=O)c2nc(cnc2N)-c2ccc(cc2)S1(=O)=O (stereo unspecified)
1.73

--- query ---
Prompt line: Which TGI reading was recorded for the compound O=c1[nH]c2cc([N+](=O)[O-])c(N(CCO)CCO)c([N+](=O)[O-])c2[nH]1 ?
Response line: 77.1
